Recorded inhibition at 1.1 µM, one value per entry.
- Measurement target: HIV-1 protease (Human immunodeficiency virus type 1 group M subtype B, UniProt P04585)
- Protocol text: biochemical
- Recorded conditions: Table I; Dose 1.100 μM; read-out: Protease % Inhib
- Protocol: The HIV protease screening assay is based on fluorescently labeled substrate which can be resolved from nonlabeled cleavage product using special beads coated with streptavidin. […] The labeled cleavage product is separated from the unreacted substrate via filtration and is read on the Idexx screen machine. The data are analyzed by appropriate computer algorithms to ascertain percent inhibition values.
Where a name gives a salt, the structure may show the parent alone.
API: value field is a number in %; no unit string.

Answered cases to consult:
Query: Given the compound CN(c1cccc(C(c2c(O)c3c(oc2=O)CCCCCC3)C2CC2)c1)S(=O)(=O)c1ccccc1 (centres unmarked) , write its reported inhibition at 1.1 µM.
Result: 53.9

Query: Quickly give me recorded inhibition at 1.1 µM for CCC(CCNC(=O)CCCCCCC(=O)N(C)CCS(=O)(=O)O)c1cc(O)c(C(c2cccc(NS(=O)(=O)c3cn(C)cn3)c2)C2CC2)c(=O)o1 (centres unmarked) [Example 110, monosodium salt]
Result: 95.1

Query: State its inhibition at 1.1 µM for this compound: O=C(O)c1ccc(S(=O)(=O)Cc2cccc(C(c3c(O)c4c(oc3=O)CCCCCC4)C3CC3)c2)cc1 (centres unmarked)
Result: 96.8

Query: Look up inhibition at 1.1 µM of CCCC1(CCC)CC(O)=C(C(CC)c2cccc(NS(=O)(=O)c3cccc4cccnc34)c2)C(=O)O1 (centres unmarked) [Example 43] and report it.
Result: 95.7

Query: Answer with reported inhibition at 1.1 µM of O=c1oc(C(CC2CC2)CC2CC2)cc(O)c1C(c1cccc(NS(=O)(=O)c2ncc[nH]2)c1)C1CC1 (centres unmarked)
Result: 102

Others:
Query: In one line, give reported inhibition at 1.1 µM of the entry CCCC1CCCCCc2c1oc(=O)c(C(c1cccc(NS(=O)(=O)c3ccccc3)c1)C1CC1)c2O (centres unmarked) .
Result: 97.1

Query: Return the recorded inhibition at 1.1 µM value; entry: N#Cc1ccc(S(=O)(=O)Cc2cccc(C(c3c(O)c4c(oc3=O)CCCCCC4)C3CC3)c2)cc1 (centres unmarked)
Result: 100

Query: Give me measured inhibition at 1.1 µM, please, for this compound: CCC(C1=C(O)CC(CC(C)C)(CC(C)C)OC1=O)c1cccc(NS(=O)(=O)c2cn(C)cn2)c1 (centres unmarked)
Result: 94.7

Query: Tell me its inhibition at 1.1 µM given COCCOCCCc1cc(O)c(C(c2cccc(NS(=O)(=O)c3cn(C)cn3)c2)C2CC2)c(=O)o1 (centres unmarked) as the entry.
Result: 81.8

Query: Return inhibition at 1.1 µM (reported value) for this compound: CC[C@H](Cc1ccccc1)c1cc(O)c(C(c2cccc(NS(=O)(=O)c3ccccn3)c2)C2CC2)c(=O)o1 (single isomer, unassigned)
Result: 92

Query: Please list inhibition at 1.1 µM recorded for the compound N#Cc1ccc(S(=O)(=O)Nc2cccc(C(c3c(O)cc(C(CC4CC4)CC4CC4)oc3=O)C3CC3)c2)cc1 (centres unmarked)
Result: 106

Query: Tell me its inhibition at 1.1 µM given CCCC1(CCC)CC(O)=C(C(CC)c2cccc(NS(=O)(=O)c3ccc(F)cc3)c2)C(=O)O1 (centres unmarked) as the entry.
Result: 101

Query: Hello, please tell me recorded inhibition at 1.1 µM for this one: CCC(Cc1ccccc1)c1cc(O)c(C(c2cccc(NS(=O)(=O)c3ccc([N+](=O)[O-])cc3)c2)C2CC2)c(=O)o1 (centres unmarked)
Result: 100

Query: Output measured inhibition at 1.1 µM for this item: CCC(CCN=[N+]=[N-])c1cc(O)c(C(c2cccc(NS(=O)(=O)c3cn(C)cn3)c2)C2CC2)c(=O)o1 (centres unmarked)
Result: 104

* * *

This listing pairs compounds with measured PROTEASE % INHIB..
- Measurement target: HIV-1 protease (Human immunodeficiency virus type 1 group M subtype B, UniProt P04585)
- Protocol text: biochemical
- Recorded conditions: Table II; enzyme HIV-1; DOSE 1.100 (unit not given)
The reply should be a number in %, with the unit left off.

Here are 5 compounds together with their reported answers.
Query: Give the reported value of PROTEASE % INHIB. for this record: CCC(C1=C(O)C2CCCCCC2OC1=O)c1cccc(NS(=O)(=O)c2ccc(C#N)cn2)c1 (stereo not drawn) [Example 372]
Result: 101.52

Query: Give the reported value of PROTEASE % INHIB. for this record: CCC(C1=C(O)CC(CCc2ccc(F)cc2)(CCc2ccc(F)cc2)OC1=O)c1cccc(NS(=O)(=O)c2ccc(C(N)=O)cn2)c1 (stereo not drawn) [Example 333]
Result: 85.12

Query: In one line, give reported PROTEASE % INHIB. of the entry CCC[C@@]1(CCc2ccccc2)CC(O)=C([C@H](CC)c2cccc(NS(=O)(=O)c3ccc(N)cn3)c2)C(=O)O1 (single isomer, unassigned) [Example 314] .
Result: 114.86

Query: Note down PROTEASE % INHIB. recorded for Cn1cnc(S(=O)(=O)Nc2cccc(C(C3=C(O)CC(CCc4ccccc4)(CCC(F)(F)F)OC3=O)C(C)(C)C)c2)c1 (single isomer, unassigned) [Example 273]
Result: 75.38

Query: Give PROTEASE % INHIB. for CCCC1(CCc2ccccc2)CC(O)=C(C(c2cccc(NS(=O)(=O)c3ccccn3)c2)C(C)(C)C)C(=O)O1 (single isomer, unassigned) [Example 278]
Result: 95.6

Next compound, PROTEASE % INHIB. to be filled in.
Query: Quickly give me recorded PROTEASE % INHIB. for CCC(C1=C(O)CC(CCc2ccccc2)(CCc2ccccc2)OC1=O)c1cccc(NS(=O)(=O)c2ccc(C#N)cn2)c1 (stereo not drawn) [Example 331]
Result: 108.51

* * *

Each entry below carries its recorded PROTEASE % INHIB..
- Measurement target: HIV-1 protease (Human immunodeficiency virus type 1 group M subtype B)
- Protocol text: biochemical
- Recorded conditions: Table II; enzyme HIV-1; DOSE 10.000 (unit not given)
I only need the number, in %, no unit after it.

Query: State its PROTEASE % INHIB.: CC(C)(C)C(C1=C(O)CC(CCc2ccccc2)(CCc2ccccc2)OC1=O)c1cccc(NS(=O)(=O)c2ccc(C#N)cn2)c1 (stereo not drawn) [Example 344]
Result: 68.47

Query: Return PROTEASE % INHIB. for the following compound: CCCC1(CCC)CC(O)=C(C(c2cccc(NS(=O)(=O)c3ccc(C(F)(F)F)cn3)c2)C(C)(C)C)C(=O)O1 (single isomer, unassigned) [Example 286]
Result: 108.17

Query: Look up and report measured PROTEASE % INHIB. for this entry: CCC(C1=C(O)CC(CCc2ccccc2)(CCc2ccccc2)OC1=O)c1cccc(NS(=O)(=O)c2cn(C)cn2)c1 (stereo not drawn) [Example 330]
Result: 87.9

Query: Given CCC[C@@]1(CCc2ccc(F)cc2)CC(O)=C([C@H](c2cccc(NS(=O)(=O)c3ccc(C#N)cn3)c2)C(C)(C)C)C(=O)O1 (single isomer, unassigned) [Example 347] , respond with its PROTEASE % INHIB..
Result: 90.97

Query: Determine its reported PROTEASE % INHIB.: CCCC1(CCC)CC(O)=C(C(c2cccc(NS(=O)(=O)c3cn(C)cn3)c2)C(C)(C)C)C(=O)O1 (single isomer, unassigned) [Example 318]
Result: 94.49

* * *

- Measurement target: UniProtKB P04585
- Protocol text: biochemical
- Recorded conditions: Table I; Dose 1.100 μM
Recorded endpoint: PROTEASE % INHIB. (%)
Numeric answer only, unit % assumed.

Solved cases (4 shown):
Query: Fill in PROTEASE % INHIB. for record CC[C@H](Cc1ccccc1)c1cc(O)c(C(c2cccc(NS(=O)(=O)c3ccc(C#N)cc3)c2)C2CC2)c(=O)o1 (single isomer, unassigned)
Result: 96.32

Query: Please indicate PROTEASE % INHIB. recorded for CCCC1(CCC)CC(O)=C(C(CC)c2cccc(NS(=O)(=O)c3cn(C)cn3)c2)C(=O)O1 (single isomer, unassigned) [Example 55]
Result: 58.27

Query: For the compound CC[C@H](Cc1ccccc1)c1cc(O)c(C(c2cccc(NS(=O)(=O)c3nccn3C)c2)C2CC2)c(=O)o1 (single isomer, unassigned) , give its measured PROTEASE % INHIB. value.
Result: 93.82

Query: Identify measured PROTEASE % INHIB. associated with CC[C@H](Cc1ccccc1)c1cc(O)c(C(c2cccc(NS(=O)(=O)c3ccccn3)c2)C2CC2)c(=O)o1 (single isomer, unassigned)
Result: 106.64

Proceed to the following item.
Query: Answer with the recorded PROTEASE % INHIB. for the compound listed here: CC[C@@H](Cc1ccccc1)c1cc(O)c(C(c2cccc(NS(=O)(=O)c3cn(C)cn3)c2)C2CC2)c(=O)o1 (single isomer, unassigned)
Result: 107.37

Reference for the values: patent US6169181A
